- study.system: Tankyrase 1 (TNKS1) (Homo sapiens, UniProt O95271)
- Sequence (O95271 whole entry): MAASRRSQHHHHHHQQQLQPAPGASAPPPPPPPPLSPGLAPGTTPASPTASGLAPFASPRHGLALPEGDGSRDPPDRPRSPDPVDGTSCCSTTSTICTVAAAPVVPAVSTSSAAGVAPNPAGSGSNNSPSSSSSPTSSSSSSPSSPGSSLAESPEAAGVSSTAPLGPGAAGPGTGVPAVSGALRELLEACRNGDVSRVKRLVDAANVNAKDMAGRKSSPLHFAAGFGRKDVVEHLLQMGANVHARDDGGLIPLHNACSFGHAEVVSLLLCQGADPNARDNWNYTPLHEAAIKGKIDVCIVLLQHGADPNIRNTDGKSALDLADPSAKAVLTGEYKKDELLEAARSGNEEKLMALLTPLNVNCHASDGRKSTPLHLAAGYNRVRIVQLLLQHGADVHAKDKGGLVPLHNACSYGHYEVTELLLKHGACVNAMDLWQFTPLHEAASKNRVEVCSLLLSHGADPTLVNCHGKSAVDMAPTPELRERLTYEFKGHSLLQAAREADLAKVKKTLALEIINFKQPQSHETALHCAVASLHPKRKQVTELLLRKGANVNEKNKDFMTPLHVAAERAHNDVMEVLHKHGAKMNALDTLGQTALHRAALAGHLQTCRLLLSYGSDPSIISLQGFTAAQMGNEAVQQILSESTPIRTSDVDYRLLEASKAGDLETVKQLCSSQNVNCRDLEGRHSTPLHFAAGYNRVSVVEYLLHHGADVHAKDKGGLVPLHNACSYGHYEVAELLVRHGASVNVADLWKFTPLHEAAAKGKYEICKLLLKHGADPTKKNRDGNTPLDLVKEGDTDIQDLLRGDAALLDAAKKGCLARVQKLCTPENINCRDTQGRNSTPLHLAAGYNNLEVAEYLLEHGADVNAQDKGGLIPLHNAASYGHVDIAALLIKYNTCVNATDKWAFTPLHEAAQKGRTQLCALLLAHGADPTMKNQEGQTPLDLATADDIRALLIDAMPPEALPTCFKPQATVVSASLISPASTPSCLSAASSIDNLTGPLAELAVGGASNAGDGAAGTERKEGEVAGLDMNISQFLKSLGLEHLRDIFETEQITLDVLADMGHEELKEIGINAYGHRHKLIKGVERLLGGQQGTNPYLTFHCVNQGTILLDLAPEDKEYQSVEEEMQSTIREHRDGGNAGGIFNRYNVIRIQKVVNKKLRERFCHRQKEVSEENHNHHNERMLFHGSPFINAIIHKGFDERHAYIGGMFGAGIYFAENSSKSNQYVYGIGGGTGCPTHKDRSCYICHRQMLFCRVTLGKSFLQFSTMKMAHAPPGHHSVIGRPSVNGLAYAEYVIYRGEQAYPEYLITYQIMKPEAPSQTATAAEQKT
assay.endpoint: IC50 (nM)
Entry rule: numbers only, all in nM.

Exercise: Form field: IC50 recorded for COc1ccc(-n2c(SCCCN3C(=O)c4cccc5cccc(c45)C3=O)nnc2-c2ccncc2)cc1 [WIKI4] with Tankyrase 1 (TNKS1) (Homo sapiens, UniProt O95271) (enter value)
Solution: 26
